tested on: Trichomonas vaginalis G3 trophozoites; details: HTS replicate 1; parasite screen 1 µg/mL
T.vaginalis_%inb_Rep1 values by entry

compound: COc1oc(C2C/C(=C/C(C)=C/C(C)=C/C(C)=C/c3ccc([N+](=O)[O-])cc3)CO2)c(C)c(=O)c1C (stereo not drawn) [Neoaureothin]
T.vaginalis_%inb_Rep1 [%]: 14.76

compound: Cn1c(=O)c(=Cc2ccccc2)[nH]c(=O)c1=Cc1ccccc1 [Piperafizine A]
T.vaginalis_%inb_Rep1 [%]: 11.87

compound: CC1=C[C@H]2C(=O)O[C@H]3C[C@@H](C/C=C(\C)C[C@@H](C)/C=C/C=C4\CO[C@H]([C@@H]1O)[C@@]42O)O[C@]1(C3)C[C@H](O)[C@H](C)[C@@H](/C(C)=C/C(C)C)O1 [Nemadectin]
T.vaginalis_%inb_Rep1 [%]: 11.56

compound: O=C(O)CC[N+](=O)[O-] [Nitropropionic acid, 3-]
T.vaginalis_%inb_Rep1 [%]: 18.00

compound: CCC(O)C(C)(O)C1OC(=O)C(C)C(OC2CC(C)(OC)C(O)C(C)O2)C(C)C(OC2OC(C)CC(N(C)C)C2O)C2(C)CC(C)=C(O2)C1C (stereo not drawn) [Pseudoerythromycin A enol ether]
T.vaginalis_%inb_Rep1 [%]: 13.84

compound: CC[C@H](C)[C@@H]1OC(=O)C(C)(C)[C@@H](O)[C@@H](Cc2ccccc2)OC(=O)[C@H](C(C)C)OC(=O)[C@@H](NC(=O)c2cccc(NC=O)c2O)[C@H](C)OC1=O [Neoantimycin]
T.vaginalis_%inb_Rep1 [%]: 13.59

* * *

tested on: T. vaginalis; assay: Miniaturised Mtz drug-sensitivity assay, 384-well plates; format: cell-based; conditions: Trichomonas vaginalis, 36 h, C8: 384-well, 250 cells/well, 50 µL, 36 h
experimental-readout: IC50 (nM)

query-smiles: Cc1ncc([N+](=O)[O-])n1CCO
experimental-readout: IC50
number: 672

* * *

test system: Trichomonas vaginalis G3 trophozoites; conditions: HTS replicate 1; parasite screen 1 µg/mL
Starred links: 1 amine or outer side, 2 acyl side, 3 side chain; linkers in the order of their positions; H or OH if unused. Positions of bridges follow the written chain, without caps; N, C: chain ends. Non-standard residues stand in square brackets, D forms with d. Residues, ends and D or L forms follow the SMILES beside them. *: point of attachment. Orn(4R-OH,5R-OH) = O=C([C@H](C[C@@H](O)[C@@H](O)N[*:3])N[*:1])[*:2]; Tetradecanoyl(10R,12S-Me2) = CC[C@H](C)C[C@H](C)CCCCCCCCC(=O)*; hTyr(3S-OH,4S-OH) = N[C@H](C(=O)O)[C@H](O)[C@@H](O)c1ccc(O)cc1; Gln(3R-OH) = NC(=O)C[C@@H](O)[C@H](N)C(=O)O; Pro(3S-OH) = O=C(O)[C@H]1NCC[C@@H]1O; Hyp = O=C(O)[C@@H]1C[C@@H](O)CN1
experimental-readout: T.vaginalis_%inb_Rep1

compound: C/C1=C\C(C)C(O)/C(C)=C/C(O[C@H]2O[C@H](CO)[C@@H](O)[C@H](O)[C@@H]2O)C(O)C(C)C(O)CC(O)/C=C\C(C)C(O)C(C)CCC(O)CC(O)C(C)C(O)C(C)C(O)CC(O)CC(O)C(C)C(C(C)CCCCCCN)OC(=O)CCCCCC(O)C(C)C(O)CC/C=C/C(C)C1O (stereo partly drawn)
result: 9.53%
//
compound: CCC(C)C1NC(=O)c2c1n(C)c1ccccc1c2=O (stereo not drawn)
result: 10.96%
//
compound: COC(=O)c1cc(O)cc(OC)c1C(=O)c1c(O)cc(C)cc1OC
result: 8.42%
//
compound: CC[C@H]1/C=C/C=C/C[C@@H](C)[C@H](O)[C@@](C)(O)C(=O)[C@@H](C)[C@H](O)[C@@H](C)C(=O)[C@@H](C)[C@H](O)[C@@H](C)/C=C/C(=O)O[C@@H]2[C@H](C)[C@H](CC1)O[C@@]1(O[C@@H](C[C@@H](C)O)[C@@H](C)CC1=O)[C@]2(C)O
result: 14.66%
//
compound: Nc1cc2nc3ccccc3oc-2cc1=O
result: 16.02%
//
compound: C[C@H]1NC(=O)[C@@H]2CCCCN2C(=O)CN(C)C(=O)CNC(=O)[C@@H]2CCCCN2C(=O)[C@H](NC(=O)c2nc3ccccc3cc2O)[C@@H](C)NC(=O)[C@@H]2CCCCN2C(=O)CN(C)C(=O)CNC(=O)[C@@H]2CCCCN2C(=O)[C@@H]1NC(=O)c1nc2ccccc2cc1O
result: 92.82%
//
compound: CC1=C[C@H]2C(=O)O[C@H]3C[C@@H](C/C=C(\C)C[C@@H](C)/C=C/C=C4\CO[C@H](/C1=N/O)[C@@]42O)O[C@@]1(CC[C@H](C)[C@@H](C)O1)C3
result: 12.78%
//
compound: CC=CC=CC1OC(O)(C(C)C(O)C(C)C2OC(=O)C(OC)=CC(C)=CC(C)C(O)C(C)CC(C)=CC=CC2OC)CC(OC2CC(O)C(O)C(C)O2)C1C (stereo not drawn) [PC-766B]
result: 72.87%
//
compound: CCCCCCCCCCCCCCCCCC(=O)N[C@H]1CCOC1=O
result: 12.02%
//
compound: C[C@H]1CCN2C[C@]34C[C@@]5(C(=O)Nc6c5ccc5c6OC=CC(C)(C)O5)C(C)(C)[C@@H]3C[C@]12C(=O)N4C [Paraherquamide E]
result: 16.63%
//
compound: CC[C@@H]1CCN[C@H](C(=O)N[C@@H]([C@H]2O[C@H](SC)[C@H](O)[C@@H](O)[C@H]2O)[C@H](C)Cl)C1
result: 5.02%
//
compound: Cc1ccc2c(c1O)C(=O)c1c(cc(O)c(C(=O)O)c1C)[C@]2(C)OO[C@@]1(C)c2cc(O)c(C(=O)O)c(C)c2C(=O)c2c1ccc(C)c2O [Oxanthromicin, (+)]
result: 15.31%
//
compound: CC1=C[C@H]2C(=O)O[C@H]3C[C@@H](C/C=C(\C)C[C@@H](C)/C=C/C=C4\CO[C@H]([C@@H]1O)[C@@]42O)O[C@@]1(CC[C@H](C)[C@@H](C)O1)C3
result: 11.05%
//
compound: O=c1c2cccn2c(=O)c2cccn12
result: 15.47%
//
compound: CCC1OC2(CCC1C)CC1CC(CC=C(C)CC(C)C=CC=C3COC4C(O)C(C)=CC(C(=O)O1)C34O)O2 (stereo not drawn)
result: 12.17%
//
compound: COc1cc(O)c2c(c1)/C=C/CC(O)C(O)C(=O)/C=C/CC(C)OC2=O (stereo not drawn)
result: 8.42%
//
compound: CCC1OC2(CCC1C)CC1CC(CC=C(C)CC(C)C=CC=C3COC4C(=NO)C(C)=CC(C(=O)O1)C34O)O2 (stereo not drawn)
result: 13.39%
//
compound: CC(=O)c1c(O)cc(O)cc1O
result: 4.36%
//
compound: CN1CCC2(c3cccc4c3NC3N(C)CCC43c3cccc4c3NC3N(C)CCC43C34CCN(C)C3Nc3c(C56CCN(C)C5Nc5ccccc56)cccc34)c3ccccc3NC12 (stereo not drawn)
result: 9.23%
//
compound: C[C@@H](O)CCCCCCCCCCCCCc1cc(O)cc(O)c1C(=O)O
result: 18.46%
//
compound: CC1(C)CC[C@]2(C)CC[C@]3(C)C4=CC[C@H]5C(C)(C)[C@@H](O)CC[C@]5(C)[C@H]4CC[C@@]3(C)[C@@H]2C1
result: 10.55%
//
compound: CC[C@H](C)C[C@H](C)CCCCCCCCC(=O)N[C@H]1C[C@@H](O)[C@@H](O)NC(=O)[C@@H]2[C@@H](O)CCN2C(=O)[C@H]([C@H](O)CC(N)=O)NC(=O)[C@H]([C@H](O)[C@@H](O)c2ccc(O)cc2)NC(=O)[C@@H]2C[C@@H](O)CN2C(=O)[C@H]([C@@H](C)O)NC1=O [Pneumocandin B0] ({Tetradecanoyl(10R,12S-Me2)}-[Orn(4R-OH,5R-OH)]T[Hyp][hTyr(3S-OH,4S-OH)][Gln(3R-OH)][Pro(3S-OH)]; lactam 1-C)
result: 10.50%
//
compound: CCOC(=O)[C@H](Cc1ccccc1)NC(=O)c1cc(Cl)c2c(c1O)C(=O)O[C@H](C)C2
result: 15.37%
//
compound: COc1ccc2c(c1OC)C(=O)O[C@@H]2[C@H]1c2c(cc3c(c2OC)OCO3)CCN1C
result: 11.80%

Data provenance is paper PMC7897990.
